# TARGET_OR_TEST_SYSTEM: Sodium/glucose cotransporter 2 (Homo sapiens)
# EXPERIMENT: Inhibition of human full length SGLT2 expressed in NIH3T3 cells measured after 1 hr in presence of [14C]-methyl-alpha -D-glucopyranoside by scintillation counter method
READOUT: IC50

Known IC50 results, listed for orientation:
INSERT INTO assay_data (structure_smiles, target_or_test_system, readout, result) VALUES
  ('CCOc1ccc(Cc2ccc3c(c2)[C@]2(OC3)O[C@H](C)[C@@H](O)[C@H](O)[C@H]2O)cc1', 'Sodium/glucose cotransporter 2 (Homo sapiens)', 'IC50', '> 0.1 µM'),
  ('C[C@H]1O[C@]2(OCc3ccc(Cc4cc5ccccc5o4)cc32)[C@H](O)[C@@H](O)[C@@H]1O', 'Sodium/glucose cotransporter 2 (Homo sapiens)', 'IC50', '> 0.1 µM'),
  ('C[C@H]1O[C@]2(OCc3ccc(Cc4ccc(-c5ccc(F)cc5)s4)cc32)[C@H](O)[C@@H](O)[C@@H]1O', 'Sodium/glucose cotransporter 2 (Homo sapiens)', 'IC50', '> 0.1 µM'),
  ('C[C@H]1O[C@]2(OCc3ccc(Cc4ccc5ccccc5c4)cc32)[C@H](O)[C@@H](O)[C@@H]1O', 'Sodium/glucose cotransporter 2 (Homo sapiens)', 'IC50', '> 0.1 µM'),
  ('COC(=O)c1ccc(Cc2cc3c(cc2Cl)CO[C@]32O[C@H](C)[C@@H](O)[C@H](O)[C@H]2O)s1', 'Sodium/glucose cotransporter 2 (Homo sapiens)', 'IC50', '0.0515 µM'),
  ('CC(C)c1ccc(Cc2ccc3c(c2)[C@]2(OC3)O[C@H](C)[C@@H](O)[C@H](O)[C@H]2O)cc1', 'Sodium/glucose cotransporter 2 (Homo sapiens)', 'IC50', '> 0.1 µM'),
  ('COCCc1ccc(Cc2cc3c(cc2Cl)CO[C@]32O[C@H](C)[C@@H](O)[C@H](O)[C@H]2O)s1', 'Sodium/glucose cotransporter 2 (Homo sapiens)', 'IC50', '0.0694 µM');

Per the record, C[C@H]1O[C@]2(OCc3ccc(Cc4cc5ccccc5s4)cc32)[C@H](O)[C@@H](O)[C@@H]1O has IC50 of > 0.1 µM

* * *

# EXPERIMENT: Mean residence time infinity in mouse at 10 mg/kg, po administered as single dose
# Type: ADME, organism-based
# SETUP_CONDITIONS: in vivo
READOUT: MRT inf (h)
Write the answer as a number in h, unit excluded.

// field: MRT inf; key: CCc1ccc(Cc2cc3c(cc2C)CO[C@]32O[C@H](C)[C@@H](O)[C@H](O)[C@H]2O)s1 ; value = 8.9

* * *

# TARGET_OR_TEST_SYSTEM: Sodium/glucose cotransporter 2 (Homo sapiens, UniProt P31639)
# Sequence (P31639 whole entry): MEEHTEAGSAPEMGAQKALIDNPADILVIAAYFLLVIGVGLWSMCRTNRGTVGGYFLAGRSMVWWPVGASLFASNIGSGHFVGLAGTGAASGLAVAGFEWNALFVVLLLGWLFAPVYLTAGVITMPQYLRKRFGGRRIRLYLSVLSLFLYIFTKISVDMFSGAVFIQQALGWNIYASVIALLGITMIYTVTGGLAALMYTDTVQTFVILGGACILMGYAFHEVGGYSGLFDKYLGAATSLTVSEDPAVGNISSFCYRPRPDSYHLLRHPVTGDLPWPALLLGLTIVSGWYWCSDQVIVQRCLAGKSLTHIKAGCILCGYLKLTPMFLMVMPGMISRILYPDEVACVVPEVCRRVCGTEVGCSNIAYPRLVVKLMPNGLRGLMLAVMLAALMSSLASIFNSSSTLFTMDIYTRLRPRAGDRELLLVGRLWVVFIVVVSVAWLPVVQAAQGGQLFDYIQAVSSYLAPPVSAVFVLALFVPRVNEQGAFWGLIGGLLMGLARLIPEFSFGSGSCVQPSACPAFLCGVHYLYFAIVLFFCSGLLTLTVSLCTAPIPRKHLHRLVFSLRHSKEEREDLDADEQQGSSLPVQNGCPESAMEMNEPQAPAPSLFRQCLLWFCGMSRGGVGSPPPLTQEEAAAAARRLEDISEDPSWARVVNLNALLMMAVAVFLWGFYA
# EXPERIMENT: Inhibition of human full length SGLT2 expressed in NIH3T3 cells measured after 1 hr in presence of [14C]-methyl-alpha -D-glucopyranoside by scintillation counter method
READOUT: IC50 (nM)

INSERT INTO results (structure_smiles, unit_text, numeric_result) VALUES
  ('CCCOCCc1ccc(Cc2cc3c(cc2Cl)CO[C@]32O[C@H](C)[C@@H](O)[C@H](O)[C@H]2O)s1', 'nM', 42.3);

a: CCOCCc1ccc(Cc2cc3c(cc2Cl)CO[C@]32O[C@H](C)[C@@H](O)[C@H](O)[C@H]2O)s1
b: CCc1ccc(Cc2cc3c(cc2C)CO[C@]32O[C@H](C)[C@@H](O)[C@H](O)[C@H]2O)s1
Hi, I'm comparing two records. Which one has the lower IC50, a or b ? Indicate your choice by writing its label.
b

* * *

# EXPERIMENT: Cmax in mouse at 10 mg/kg, po administered as single dose
# Type: ADME, organism-based
# Parameters: dose 10 mg/kg, route oral
# SETUP_CONDITIONS: in vivo
READOUT: Cmax (ng/mL)
Give just the numeric value; ng/mL need not be written.

Cmax reported for this molecule CCc1ccc(Cc2cc3c(cc2C)CO[C@]32O[C@H](C)[C@@H](O)[C@H](O)[C@H]2O)s1 : 740

* * *

# Organism: Homo sapiens
# EXPERIMENT: Selectivity ratio of IC50 for human full length SGLT1 to IC50 for human full length SGLT2
READOUT: Ratio IC50

Examples with answers:
INSERT INTO results (structure_smiles, numeric_result) VALUES
  ('CCc1ccc(Cc2cc3c(cc2Cl)CO[C@]32O[C@H](C)[C@@H](O)[C@H](O)[C@H]2O)cc1', 13),
  ('CCc1ccc(Cc2ccc3c(c2)[C@]2(OC3)O[C@H](C)[C@@H](O)[C@H](O)[C@H]2O)cc1', 351),
  ('COCCc1ccc(Cc2cc3c(cc2Cl)CO[C@]32O[C@H](C)[C@@H](O)[C@H](O)[C@H]2O)s1', 68);

1: CCc1ccc(Cc2cc3c(cc2F)CO[C@]32O[C@H](C)[C@@H](O)[C@H](O)[C@H]2O)s1
2: C[C@H]1O[C@]2(OCc3cc(Cl)c(Cc4ccc(C=O)s4)cc32)[C@H](O)[C@@H](O)[C@@H]1O
Returns: the argument ( 1 or 2 ) having the larger Ratio IC50. Answer by stating the label of the chosen item.
1

* * *

# Organism: Homo sapiens
# EXPERIMENT: Selectivity ratio of IC50 for human full length SGLT1 to IC50 for human full length SGLT2
READOUT: Ratio IC50

Use the examples below as a reference point.
INSERT INTO assay_data (structure_smiles, numeric_result) VALUES
  ('CCOc1ccc(Cc2cc3c(cc2Cl)CO[C@]32O[C@H](C)[C@@H](O)[C@H](O)[C@H]2O)cc1', 60),
  ('CCc1ccc(Cc2cc3c(cc2C)CO[C@]32O[C@H](C)[C@@H](O)[C@H](O)[C@H]2O)s1', 216),
  ('C[C@H]1O[C@]2(OCc3cc(Cl)c(Cc4cc5ccccc5s4)cc32)[C@H](O)[C@@H](O)[C@@H]1O', 81),
  ('Cc1ccc(Cc2cc3c(cc2Cl)CO[C@]32O[C@H](C)[C@@H](O)[C@H](O)[C@H]2O)s1', 46),
  ('COC(=O)c1ccc(Cc2cc3c(cc2Cl)CO[C@]32O[C@H](C)[C@@H](O)[C@H](O)[C@H]2O)s1', 58);

P: CCOCCc1ccc(Cc2cc3c(cc2Cl)CO[C@]32O[C@H](C)[C@@H](O)[C@H](O)[C@H]2O)s1
Q: C[C@H]1O[C@]2(OCc3cc(Cl)c(Cc4ccc(CO)s4)cc32)[C@H](O)[C@@H](O)[C@@H]1O
Returns the identifier with the smallest measured Ratio IC50 among P and Q . Your choice should be expressed through its label.
Q
(Q: 47, P: 71)

* * *

# TARGET_OR_TEST_SYSTEM: Sodium/glucose cotransporter 1 (Homo sapiens, UniProt P13866)
# Sequence (P13866 whole entry): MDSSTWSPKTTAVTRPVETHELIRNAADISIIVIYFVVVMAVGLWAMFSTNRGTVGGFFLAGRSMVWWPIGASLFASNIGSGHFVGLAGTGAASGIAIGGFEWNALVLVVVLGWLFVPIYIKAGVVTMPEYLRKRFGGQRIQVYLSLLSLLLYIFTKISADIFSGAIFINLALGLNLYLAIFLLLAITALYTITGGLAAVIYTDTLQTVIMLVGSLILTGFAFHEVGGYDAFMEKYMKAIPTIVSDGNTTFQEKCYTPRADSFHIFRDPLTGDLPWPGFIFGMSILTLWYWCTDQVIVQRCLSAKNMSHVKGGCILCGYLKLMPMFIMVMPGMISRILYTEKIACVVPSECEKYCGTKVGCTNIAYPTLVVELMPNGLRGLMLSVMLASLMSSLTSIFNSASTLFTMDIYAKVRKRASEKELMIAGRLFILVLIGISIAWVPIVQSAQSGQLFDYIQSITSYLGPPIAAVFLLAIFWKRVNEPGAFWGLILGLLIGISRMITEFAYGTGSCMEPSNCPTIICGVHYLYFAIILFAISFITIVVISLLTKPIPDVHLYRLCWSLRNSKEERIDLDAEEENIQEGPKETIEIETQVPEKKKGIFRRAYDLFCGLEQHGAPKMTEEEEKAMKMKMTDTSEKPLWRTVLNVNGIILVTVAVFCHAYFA
# EXPERIMENT: Inhibition of human full length SGLT1 expressed in NIH3T3 cells measured after 1 hr in presence of [14C]-methyl-alpha -D-glucopyranoside by scintillation counter method
# Assay type: cell-based
READOUT: IC50 (µM)

Reference set (2 entries):
INSERT INTO results (structure_smiles, unit_text, numeric_result) VALUES
  ('C[C@H]1O[C@]2(OCc3cc(Cl)c(Cc4ccc(CO)s4)cc32)[C@H](O)[C@@H](O)[C@@H]1O', 'µM', 2.2),
  ('C[C@H]1O[C@]2(OCc3cc(Cl)c(Cc4ccc(C=O)s4)cc32)[C@H](O)[C@@H](O)[C@@H]1O', 'µM', 3.6);

1: COC(=O)Cc1ccc(Cc2cc3c(cc2Cl)CO[C@]32O[C@H](C)[C@@H](O)[C@H](O)[C@H]2O)s1
2: CCc1ccc(Cc2cc3c(cc2Cl)CO[C@]32O[C@H](C)[C@@H](O)[C@H](O)[C@H]2O)cc1
Please indicate which item has the smaller measured IC50: 1 versus 2 When you have decided, please share the label of that item.
2
(2: 0.4 µM, 1: 6.4 µM)

* * *

# EXPERIMENT: Half-life in mouse at 2 mg/kg, iv administered as single dose
# Assay type: ADME, organism-based
# SETUP_CONDITIONS: in vivo
READOUT: half-life (h)
Your answer should be a plain number; it is taken to be in h.

compound CCc1ccc(Cc2cc3c(cc2C)CO[C@]32O[C@H](C)[C@@H](O)[C@H](O)[C@H]2O)s1 , half-life observed: 10.8

* * *

# EXPERIMENT: Tmax in mouse at 10 mg/kg, po administered as single dose
# Type: ADME, organism-based
# SETUP_CONDITIONS: in vivo
READOUT: Tmax (min)
Value expressed in min; do not type the unit.

Lab note: CCc1ccc(Cc2cc3c(cc2C)CO[C@]32O[C@H](C)[C@@H](O)[C@H](O)[C@H]2O)s1 gave Tmax of 19.8
